measured-target: FGFR4 (Homo sapiens (Human), UniProt P22455)
Sequence (P22455 22-802): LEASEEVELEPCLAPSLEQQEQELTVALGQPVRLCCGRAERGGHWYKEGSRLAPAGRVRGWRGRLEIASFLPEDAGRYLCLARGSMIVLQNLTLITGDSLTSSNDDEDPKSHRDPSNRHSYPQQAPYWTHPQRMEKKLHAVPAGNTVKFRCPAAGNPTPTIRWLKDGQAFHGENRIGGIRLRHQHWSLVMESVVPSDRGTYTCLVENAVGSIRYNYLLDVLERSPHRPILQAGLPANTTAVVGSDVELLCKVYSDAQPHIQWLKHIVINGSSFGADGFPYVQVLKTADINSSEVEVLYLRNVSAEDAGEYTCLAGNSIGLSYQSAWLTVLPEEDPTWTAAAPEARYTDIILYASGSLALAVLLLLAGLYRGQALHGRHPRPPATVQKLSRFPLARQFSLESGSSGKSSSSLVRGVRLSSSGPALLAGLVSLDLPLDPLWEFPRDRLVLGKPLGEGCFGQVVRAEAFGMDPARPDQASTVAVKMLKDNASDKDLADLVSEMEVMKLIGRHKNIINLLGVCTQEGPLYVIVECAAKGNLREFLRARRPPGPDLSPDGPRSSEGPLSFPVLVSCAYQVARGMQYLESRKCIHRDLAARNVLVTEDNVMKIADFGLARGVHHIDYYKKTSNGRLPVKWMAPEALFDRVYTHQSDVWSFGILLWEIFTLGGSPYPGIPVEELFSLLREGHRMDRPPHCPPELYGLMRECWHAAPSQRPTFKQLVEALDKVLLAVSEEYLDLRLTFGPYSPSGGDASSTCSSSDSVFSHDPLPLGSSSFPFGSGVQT
assay-overview: HTRF KinEASE-TK kinase assay, FGFR4
Type: biochemical
run-conditions: read-out: % FGFR4 Remaining activity vs DMSO (1 μM, 3 h)
reported-metric: remaining activity at 1 µM

compound="Nc1ncnc2c1c(-c1ccc(Oc3ccccc3)cc1)nn2CCNS(=O)(=O)c1c(F)c(F)c(F)c(F)c1C(F)F [Compound I-22]" experimental_value="> 90%"
compound="CN(C)S(=O)(=O)c1c(F)c(F)c(F)c(F)c1C(=O)NCCn1nc(-c2ccc(Oc3ccccc3)cc2)c2c(N)ncnc21 [Compound I-40]" experimental_value="50 to 90%"
compound="Nc1ncnc2c1c(-c1ccc(Oc3ccccc3)cc1)nn2CCNS(=O)(=O)c1c(F)c(F)c(F)c(F)c1OCF [Compound I-25]" experimental_value="50 to 90%"
compound="C[S+]([O-])c1c(F)c(F)c(F)c(F)c1C(=O)N1CCC[C@@H](n2nc(-c3ccc(Oc4ccccc4)cc3)c3c(N)ncnc32)C1 (stereo partly shown) [Compound I-36]" experimental_value="> 90%"
compound="CS(=O)(=O)c1c(F)c(F)c(F)c(F)c1Nc1cc2c(Nc3ccc(F)c(Cl)c3)ncnc2cc1O[C@H]1CCOC1 [Compound I-2]" experimental_value="> 90%"
compound="Nc1ncnc2c1c(-c1ccc(Oc3ccccc3)cc1)nn2CCNC(=O)c1c(F)c(F)c(F)c(F)c1S(N)(=O)=O [Compound I-42]" experimental_value="50 to 90%"
compound="COCCOc1ccc(Nc2ncc(F)c(Nc3cccc(Nc4c(F)c(F)c(F)c(F)c4[S@+](C)[O-])c3)n2)cc1 (stereo in doubt) [Compound I-63]" experimental_value="> 90%"
compound="CN(CCn1nc(-c2ccc(Oc3ccccc3)cc2)c2c(N)ncnc21)C(=O)c1c(F)c(F)c(F)c(F)c1S(=O)(=O)N(C)C [Compound I-30]" experimental_value="< 50%"
compound="COCCOc1ccc(Nc2ncc(F)c(NCCCNS(=O)(=O)c3c(F)c(F)c(F)c(F)c3OC(F)F)n2)cc1 [Compound I-55]" experimental_value="50 to 90%"
compound="COCCOc1ccc(Nc2ncc(F)c(Nc3cccc(Nc4c(F)c(F)c(F)c(F)c4S(C)(=O)=O)c3)n2)cc1 [Compound I-64]" experimental_value="< 50%"

----------
measured-target: BMX (Homo sapiens (Human), UniProt P51813)
Sequence (P51813 whole entry): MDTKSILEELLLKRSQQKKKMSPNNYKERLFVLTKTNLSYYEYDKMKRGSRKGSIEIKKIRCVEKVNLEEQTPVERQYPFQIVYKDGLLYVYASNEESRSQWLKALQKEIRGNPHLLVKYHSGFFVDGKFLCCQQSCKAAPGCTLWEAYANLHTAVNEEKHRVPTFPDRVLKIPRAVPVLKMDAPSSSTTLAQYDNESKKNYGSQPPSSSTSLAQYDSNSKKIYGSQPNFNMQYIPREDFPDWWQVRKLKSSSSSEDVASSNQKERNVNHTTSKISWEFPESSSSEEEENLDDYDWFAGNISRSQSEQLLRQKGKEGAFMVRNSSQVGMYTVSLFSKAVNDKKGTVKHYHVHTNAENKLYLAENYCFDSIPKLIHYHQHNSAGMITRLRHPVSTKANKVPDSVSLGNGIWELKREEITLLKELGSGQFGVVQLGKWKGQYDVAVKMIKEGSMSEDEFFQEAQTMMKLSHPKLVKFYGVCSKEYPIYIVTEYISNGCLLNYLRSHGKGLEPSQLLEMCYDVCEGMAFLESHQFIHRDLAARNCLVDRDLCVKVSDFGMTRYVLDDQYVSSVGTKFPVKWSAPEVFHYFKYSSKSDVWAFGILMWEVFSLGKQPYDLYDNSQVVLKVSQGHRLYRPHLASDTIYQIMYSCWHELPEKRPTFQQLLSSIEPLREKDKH
assay-overview: HTRF KinEASE-TK kinase assay, BMX
Type: biochemical
run-conditions: 10 uM compound, 3 h preincubation
// reported remaining activity at 10 µM per item
reported-metric: remaining activity at 10 µM

smiles_str=NS(=O)(=O)c1c(F)c(F)c(F)c(F)c1C(=O)NCCNc1ncnc2[nH]ccc12 experimental_value="< 50%"
smiles_str=CN(CCn1nc(-c2ccc(Oc3ccccc3)cc2)c2c(N)ncnc21)C(=O)c1c(F)c(F)c(F)c(F)c1S(C)(=O)=O experimental_value="< 50%"
smiles_str=COCCOc1ccc(Nc2ncc(F)c(NCCCNS(=O)(=O)c3c(F)c(F)c(F)c(F)c3C(F)F)n2)cc1 experimental_value="< 50%"
